Experiment: AUC in C57BL/6 mouse at 0.5 mg/kg, iv measured up to 24 hrs by LC-MS/MS analysis
Assay type: ADME, organism-based
Parameters: route intravenous, dose 0.5 mg/kg, time <=24
Conditions: in vivo
Readout: AUC at 24 h (µM·h)
Numbers only; they are read as µM·h.

Briefly, AUC at 24 h measured for `CC(C)Oc1cc(NC(=O)N2CCCc3cc(CN4CCCC4=O)c(C=O)nc32)ncc1C#N` : 4.54

* * *

Catalogue of clearance values
Assay: Clearance in Crl:CD (SD) rat at 1 mg/kg, iv or 3 mg/kg, po measured up to 24 hrs by LC-MS/MS analysis
Format: ADME, organism-based
Settings: in vivo
Numbers only; they are read as mL/min/kg.

As a guide, the following entries are already answered.
Briefly, clearance measured for `COC[C@@H](C)Nc1cc(NC(=O)N2CCCc3cc(CN4CCN(C)CC4=O)c(C=O)nc32)ncc1C#N` : 35

Briefly, clearance measured for `COC[C@H](C)Nc1cc(NC(=O)N2CCCc3cc(CN4CCN(C)CC4=O)c(C=O)nc32)ncc1C#N` : 19

Briefly, clearance measured for `COCCNc1cc(NC(=O)N2CCCc3cc(CN(C)C(C)=O)c(C=O)nc32)ncc1C#N` : 16

Continuing:
Briefly, clearance measured for `COCCNc1cc(NC(=O)N2CCCc3cc(-c4cnc(C)s4)c(C=O)nc32)ncc1C#N` : 8

Briefly, clearance measured for `COCCOc1cc(NC(=O)N2CCCc3cc(CO)c(C=O)nc32)ncc1C#N` : 52

* * *

Assay: Drug metabolism in human Caco-2 cells assessed as depletion of parent compound at 10 uM measured after 1 hr by LC-MS/MS analysis
Type: ADME, cell-based
Conditions: read-out: Drug degradation
Readout: metabolised at 1 h, 10 µM (%)
Numbers only; they are read as %.

Briefly, metabolised at 1 h, 10 µM measured for `N#Cc1cnc(NC(=O)N2CCCc3ccc(C=O)nc32)nc1` : 80

* * *

Test: Half-life in C57BL/6 mouse at 1 mg/kg, iv or 3 mg/kg, po measured upto 24 hrs by LC-MS/MS analysis
Assay type: ADME, organism-based
Conditions: in vivo
Readout: half-life (min)
Numbers only; they are read as min.

Briefly, half-life measured for `COCCNc1cc(NC(=O)N2CCCc3cc(CO)c(C=O)nc32)ncc1C#N` : 48

* * *

Test: Half-life in Crl:CD (SD) rat at 1 mg/kg, iv or 3 mg/kg, po measured upto 24 hrs by LC-MS/MS analysis
Format: ADME, organism-based
Conditions: in vivo
With a cut-off of 200 min, any half-life strictly below it is called MET; any half-life meeting it or above is called NOT MET.

Consider the following illustrative entries.
Consider `COCCNc1cc(NC(=O)N2CCCc3cc(-c4cnc(C)s4)c(C=O)nc32)ncc1C#N` . Does its half-life lie strictly below 200 min? NOT MET

Consider `COCCNc1cc(NC(=O)N2CCCc3cc(CN(C)C(C)=O)c(C=O)nc32)ncc1C#N` . Does its half-life lie strictly below 200 min? NOT MET

Consider `COCCNc1cc(NC(=O)N2CCCc3cc(C(F)F)c(C=O)nc32)ncc1C#N` . Does its half-life lie strictly below 200 min? MET

Consider `COCCOc1cc(NC(=O)N2CCCc3cc(CO)c(C=O)nc32)ncc1C#N` . Does its half-life lie strictly below 200 min? MET

Continuing:
Consider `CC(C)Oc1cc(NC(=O)N2CCCc3cc(CN4CCCC4=O)c(C=O)nc32)ncc1C#N` . Does its half-life lie strictly below 200 min? NOT MET

Consider `N#Cc1ccc(NC(=O)N2CCCc3ccc(C=O)nc32)nc1` . Does its half-life lie strictly below 200 min? MET

* * *

Assay: AUC (0-48 hrs) in mouse xenografted with human Huh-7 cells at 6 mg/kg, po qd administered for 8 days
Assay type: ADME, organism-based
Design: route oral, time 8 day, dose 6 mg/kg
Settings: in vivo
Readout: AUC at 192 h
Field note: include the unit after the figure.

Briefly, AUC at 192 h measured for `COCCOc1cc(NC(=O)N2CCCc3cc(CN4CCN(C)CC4=O)c(C=O)nc32)ncc1C#N` : 5.2 µM·h

* * *

Test: Plasma concentration in mouse xenografted with human RH30 cells at 30 mg/kg, po by LC-MS/MS analysis
Format: ADME, organism-based
Conditions: in vivo
Readout: concentration

Briefly, concentration measured for `COCCNc1cc(NC(=O)N2CCCc3cc(CO)c(C=O)nc32)ncc1C#N` : < 40 nM

* * *

Assay: Metabolic stability in rat liver S9 fraction assessed as parent compound remaining at 1 uM incubated for 60 mins in presence of NADPH by HPLC/MS analysis
Assay type: ADME, subcellular
Details: read-out: Stabilty
Readout: remaining at 1 h, 1 µM (%)
Numbers only; they are read as %.

Briefly, remaining at 1 h, 1 µM measured for `N#Cc1ccc(NC(=O)N2CCCc3ccc(C=O)nc32)nc1` : 1

* * *

Assay: Aqueous solubility of compound at pH 6.8
Format: physicochemical
Conditions: buffer, time 15 min
Readout: solubility at […]

Briefly, solubility at […] measured for `COCCNc1cc(NC(=O)N2CCCc3cc(-n4cnc(C)c4)c(C=O)nc32)ncc1C#N` : < 4 µM

Briefly, solubility at […] measured for `COCCNc1cc(NC(=O)N2CCCc3cc(-c4cnc(C)s4)c(C=O)nc32)ncc1C#N` : < 4 µM

Then this compound:
Briefly, solubility at […] measured for `CC(=O)N(C)Cc1cc2c(nc1C=O)N(C(=O)Nc1ccc(C#N)cn1)CCC2` : 18 µM

* * *

Catalogue of AUC/dose values
Assay: Dose normalized AUC in Crl:CD (SD) rat at 3 mg/kg, po measured up to 24 hrs by LC-MS/MS analysis
Type: ADME, organism-based
Conditions: in vivo
Field note: include the unit after the figure.

As a guide, the following entries are already answered.
Briefly, AUC/dose measured for `COCCOc1cc(NC(=O)N2CCCc3cc(CO)c(C=O)nc32)ncc1C#N` : 194 nM·h

Briefly, AUC/dose measured for `COCCNc1cc(NC(=O)N2CCCc3cc(C(F)F)c(C=O)nc32)ncc1C#N` : 774 nM·h

Briefly, AUC/dose measured for `COCCNc1cc(NC(=O)N2CCCc3cc(-c4cnc(C)s4)c(C=O)nc32)ncc1C#N` : 2174 nM·h

Briefly, AUC/dose measured for `CC(C)Oc1cc(NC(=O)N2CCCc3cc(CN4CCCC4=O)c(C=O)nc32)ncc1C#N` : 587 nM·h

Then this molecule:
Briefly, AUC/dose measured for `COCCNc1cc(NC(=O)N2CCCc3cc(CN(C)C(C)=O)c(C=O)nc32)ncc1C#N` : 599 nM·h

* * *

Assay: Volume of distribution at steady state in C57BL/6 mouse at 1 mg/kg, iv or 3 mg/kg, po measured upto 24 hrs by LC-MS/MS analysis
Type: ADME, organism-based
Conditions: in vivo, read-out: Vdss
Readout: Vd
Field note: include the unit after the figure.

Briefly, Vd measured for `COCCNc1cc(NC(=O)N2CCCc3cc(CO)c(C=O)nc32)ncc1C#N` : 1.6 L/kg

* * *

Test: Oral bioavailability in Beagle dog at 0.3 mg/kg by LC-MS/MS analysis
Assay type: ADME, organism-based, Canis lupus familiaris
Details: Beagle, in vivo
Readout: bioavailability (%)
Numbers only; they are read as %.

Briefly, bioavailability measured for `COCCOc1cc(NC(=O)N2CCCc3cc(CN4CCN(C)CC4=O)c(C=O)nc32)ncc1C#N` : 69

* * *

Test: Metabolic stability in rat blood at 1 uM assessed as parent compound remaining incubated for 60 mins by HPLC/MS analysis
Type: ADME, tissue-based
Details: read-out: Stabilty
Readout: remaining at 1 h, 1 µM (%)
Numbers only; they are read as %.

Briefly, remaining at 1 h, 1 µM measured for `N#Cc1ccc(NC(=O)N2CCCc3ccc(C=O)nc32)nc1` : 22

* * *

Assay: Thermodynamic solubility of compound in phosphate buffer at pH 6.8 measured after 15 mins by shake-flask method based LC-HRMS analysis
Type: physicochemical
Settings: read-out: Therm_solubility
Readout: solubility thermodynamic at […]

As a guide, the following entries are already answered.
Briefly, solubility thermodynamic at […] measured for `O=Cc1ccc2cccc(C(=O)Nc3ccc(C(F)(F)F)cn3)c2n1` : < 2.9 µM

Briefly, solubility thermodynamic at […] measured for `COCCNc1cc(NC(=O)N2CCCc3cc(C(F)F)c(C=O)nc32)ncc1C#N` : < 6 µM

Briefly, solubility thermodynamic at […] measured for `CC(C)Oc1cc(NC(=O)N2CCCc3cc(CN4CCCC4=O)c(C=O)nc32)ncc1C#N` : < 6 µM

Continuing:
Briefly, solubility thermodynamic at […] measured for `COCCNc1cc(NC(=O)N2CCCc3cc(-c4cnc(C)s4)c(C=O)nc32)ncc1C#N` : < 6 µM
